Tested on: Human immunodeficiency virus 1
assay: Antiviral activity against wild type HIV1 3B infected in human MT4 LTR-EGFP cells by EGFP reporter gene assay
Type: functional, organism-based
measurement_setup: Human immunodeficiency virus 1, 3B
measured_parameter: EC50 (µM)

P = CC(C)CN(C[C@@H](O)[C@H](Cc1ccccc1)NC(=O)OCc1cncs1)C(=O)c1ccc2nc(N(C)C)oc2c1
Q = CC(C)c1nc(CN(C)C(=O)N[C@H](C(=O)N[C@@H](Cc2ccccc2)C[C@H](O)[C@H](Cc2ccccc2)NC(=O)OCc2cncs2)C(C)C)cs1
Problem: Which has the higher EC50, P or Q ? Answer with the label corresponding to your selection.
Solution: P

a = CC(C)(C)CN(C[C@@H](O)[C@H](Cc1ccccc1)NC(=O)OCc1cncs1)C(=O)c1ccc2nc(N3CCCC3)oc2c1
b = CCc1nc2ccc(C(=O)N(CC(C)C)C[C@@H](O)[C@H](Cc3ccccc3)NC(=O)OCc3cncs3)cc2o1
c = CC(C)CN(C[C@@H](O)[C@H](Cc1ccccc1)NC(=O)OCc1cncs1)C(=O)c1ccc2nc(NCCCN(C)C)oc2c1
Problem: Order field: EC50 | Direction: descending (largest first) To answer, arrange all of the labels according to the requested order.
Solution: b, c, a

1 = O=C(N[C@@H](Cc1ccccc1)[C@H](O)CN(CC1CCCCC1)C(=O)c1ccc2nc(N3CCCC3)oc2c1)OCc1cncs1
2 = CCN(C)c1nc2ccc(C(=O)N(C[C@@H](O)[C@H](Cc3ccccc3)NC(=O)OCc3cncs3)CC(C)(C)C)cc2o1
Problem: Which has the higher EC50, 1 or 2 ? Answer with the label corresponding to your selection.
Solution: 2
